Test system: HCMV
test-details: In vitro anti-HCMV activity, GFP reporter virus in MRC5 cells
Type: cell-based, Human Cytomegalovirus
condition-details: Human betaherpesvirus 5, 168 h; HCMV with GFP reporter, MRC5 cells, 7 days; read-out: EC50
pEC50: −log10 of the molar value.
Mark met for reported pEC50 of 9 or greater; mark not met for anything smaller.

Look over these answered cases.
# molecule, group-label
data = [
    ("COc1cccc(N2CCN(C3=Nc4c(F)cccc4[C@H](CC(=O)O)N3c3cc(C(F)(F)F)ccc3OC)C[C@H]2C)c1", "met"),
    ("COc1cc(N2CCN(C3=Nc4c(F)cccc4C(CC(=O)O)N3c3cc(C(F)(F)F)ccc3OC)C[C@H]2C)ccn1 (stereo partly shown)", "met"),
]

Form field: pEC50 at least 9? Entry: COc1cc(N2CCN(C3=Nc4c(F)cccc4C(CC(=O)OCOC(C)=O)N3c3cc(C(F)(F)F)ccc3OC)CC2C)ccn1 (stereo not shown)
met

Given COc1cccc(N2CCN(C3=Nc4c(F)cccc4C(CC(=O)O)N3c3cc(C(F)(F)F)ccc3OC)C[C@H]2C)c1 (stereo partly shown) , state whether its pEC50 is at least 9.
met

Threshold query (pEC50 >= 9) on "COc1cc(N2CCN(C3=Nc4c(F)cccc4[C@H](CC(=O)O)N3c3cc(C(F)(F)F)ccc3OC)C[C@H]2C)ccn1"
met

hey, is pEC50 for this one >= 9? COc1cccc(N2CC3CCC(C2)N3C2=Nc3c(F)cccc3C(CC(=O)O)N2c2cc(C(F)(F)F)ccc2OC)c1 (stereo not shown)
not met

Does COc1cccc(N2CCN(C3=Nc4c(F)cccc4C(CC(=O)OCc4oc(=O)oc4C)N3c3cc(C(F)(F)F)ccc3OC)C[C@H]2C)c1 (single isomer, unassigned) have a reported pEC50 of at least 9?
met

Would you say "COc1cccc(N2CCN(C3=Nc4c(F)cccc4[C@H](CC(=O)OCOC(C)=O)N3c3cc(C(F)(F)F)ccc3OC)C[C@H]2C)c1" shows pEC50 at minimum 9?
met

Exam item: decide whether the reported pEC50 for "COC(=O)OCOC(=O)C[C@H]1c2cccc(F)c2N=C(N2CCN(c3cccc(OC)c3)CC2)N1c1cc(C(F)(F)F)ccc1OC" is at least 9.
not met

API: above_or_equal(metric=pEC50, cutoff=9) for item "COc1cc(N2CCN(C3=Nc4c(F)cccc4[C@H](CC(=O)OCOC(C)=O)N3c3cc(C(F)(F)F)ccc3OC)C[C@H]2C)ccn1"
met

Reported pEC50 at or above 9? "COc1cccc(N2CCN(C3=Nc4c(F)cccc4[C@H](CC(=O)OCOC(=O)C(C)(C)C)N3c3cc(C(F)(F)F)ccc3OC)CC2)c1"
not met

---

Recorded CC50 at 7 days by entry
test-details: in vitro
Format: cell-based
condition-details: human

Example molecules with recorded CC50 at 7 days:
# molecule, CC50 at 7 days
rows = [
    ("COc1cccc(N2CCN(C3=Nc4c(F)cccc4C(CC(=O)OCc4oc(=O)oc4C)N3c3cc(C(F)(F)F)ccc3OC)C[C@H]2C)c1 (single isomer, unassigned)", "39.3 µM"),
    ("COc1cccc(N2CCN(C3=Nc4c(F)cccc4[C@H](CC(=O)OCOC(C)=O)N3c3cc(C(F)(F)F)ccc3OC)CC2)c1", "> 50 µM"),
    ("COc1cccc(N2CCN(C3=Nc4c(F)cccc4[C@H](CC(=O)OCOC(=O)C(C)(C)C)N3c3cc(C(F)(F)F)ccc3OC)CC2)c1", "> 50 µM"),
    ("COc1cccc(N2CCN(C3=Nc4c(F)cccc4[C@H](CC(=O)O)N3c3cc(C(F)(F)F)ccc3OC)C[C@H]2C)c1", "> 50 µM"),
    ("COc1cc(N2CCN(C3=Nc4c(F)cccc4C(CC(=O)OCOC(C)=O)N3c3cc(C(F)(F)F)ccc3OC)CC2C)ccn1 (stereo not drawn)", "> 50 µM"),
]

# return recorded CC50 at 7 days for entry COc1cccc(N2CC3CCC(C2)N3C2=Nc3c(F)cccc3C(CC(=O)O)N2c2cc(C(F)(F)F)ccc2OC)c1 (stereo not drawn)
23.8 µM

---

test-details: Hepatocyte metabolic stability test
Type: in vitro ADME, Human
condition-details: hepatocyte suspension; Human hepatocytes 1.0 × 10^6 cells/mL; tested compounds 1 μM, positive control 3 μM
Consider the following molecules and their measured half-life at 1 μM readings.
Hi! Could you send only the number? It should be in h, unit omitted.

As a guide, the following entries are already answered.
# molecule, half-life at 1 μM [h]
rows = [
    ("CCOc1ccc2ccc(=O)oc2c1 [7-ethoxycoumarin]", 0.332),
    ("COc1cccc(N2CCN(C3=Nc4c(F)cccc4[C@H](CC(=O)O)N3c3cc(C(F)(F)F)ccc3OC)C[C@H]2C)c1 [Compound I-25]", 74.9),
]

Please look at the following molecule next.
Quickly give me recorded half-life at 1 μM for COc1cccc(N2CCN(C3=Nc4c(F)cccc4[C@H](CC(=O)O)N3c3cc(C(F)(F)F)ccc3OC)CC2)c1 [Letermovir, letermovir]
5.27

---

Tested on: human hepatocyte suspension
test-details: Hepatocyte metabolic stability test
Type: in vitro ADME
condition-details: Human hepatocytes 1.0 × 10^6 cells/mL; tested compounds 1 μM, positive control 3 μM
measured-endpoint: k
Remember to quote the unit after the number.

# molecule, measured-endpoint, result
rows = [
    ("CCOc1ccc2ccc(=O)oc2c1", "k", "0.0348 min⁻¹"),
    ("COc1cccc(N2CCN(C3=Nc4c(F)cccc4[C@H](CC(=O)O)N3c3cc(C(F)(F)F)ccc3OC)C[C@H]2C)c1", "k", "0.000154 min⁻¹"),
]

Determine from records and report k for "COc1cccc(N2CCN(C3=Nc4c(F)cccc4[C@H](CC(=O)O)N3c3cc(C(F)(F)F)ccc3OC)CC2)c1"
0.0022 min⁻¹

Identify the reported k for the following entry. O=c1ccc2ccc(O)cc2o1 [7-hydroxycoumarin]
0.0401 min⁻¹

---

test-details: Hepatocyte metabolic stability test
Assay type: in vitro ADME, Human
condition-details: hepatocytes; Human; scaled with 120 × 10^6 cells/g liver and 21 g liver/kg; read-out: CLint, hepatic
measured-endpoint: CLint scaled at 1 μM (mL/min/kg)
# number only, unit mL/min/kg dropped from output

For the compound O=c1ccc2ccc(O)cc2o1 [7-hydroxycoumarin] , give its measured CLint scaled at 1 μM value.
101

---

test-details: Hepatocyte metabolic stability test
Format: in vitro ADME, Human
condition-details: Human hepatocytes 1.0 × 10^6 cells/mL; positive control 3 μM
measured-endpoint: half-life (min)
Form entry: value (min) — number only.

Consider the compound O=c1ccc2ccc(O)cc2o1 [7-hydroxycoumarin] and give its recorded half-life.
17.3

---

test-details: Hepatocyte metabolic stability test
Type: in vitro ADME, Human
condition-details: hepatocyte suspension; Human hepatocytes 1.0 × 10^6 cells/mL; tested compounds 1 μM, positive control 3 μM
Below, each of the compounds is paired with its reported hepatocyte CLint at 1 μM value.
Report the value in µL/min/1e6 cells with no unit label.

# compound, units-label, hepatocyte CLint at 1 μM
rows = [
    ("CCOc1ccc2ccc(=O)oc2c1 [7-ethoxycoumarin]", "µL/min/1e6 cells", 34.8),
    ("COc1cccc(N2CCN(C3=Nc4c(F)cccc4[C@H](CC(=O)O)N3c3cc(C(F)(F)F)ccc3OC)C[C@H]2C)c1 [Compound I-25]", "µL/min/1e6 cells", 0.154),
]

The record that follows has no hepatocyte CLint at 1 μM shown yet.
Retrieve hepatocyte CLint at 1 μM measured for COc1cccc(N2CCN(C3=Nc4c(F)cccc4[C@H](CC(=O)O)N3c3cc(C(F)(F)F)ccc3OC)CC2)c1 [Letermovir, letermovir] and print it.
2.2
